Test: chemical genetic growth profiling, strain panel (AID 1159580);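 note: tested at 20 µM; growth read once vehicle control cultures reached saturation at 30 °C; 1 = growth at the plate median or of vehicle wells; lower values mean less growth of the strain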
Settings: S. cerevisiae deletion strains, growth OD, locus YLR370C, strain arc18, hits give low values
Out of some 5,500 compounds screened, about 2,000 (36%) were called active. Roughly 18% stayed inconclusive and do not appear here. This is one part of the list.
property: normalized growth

| molecule | assay.result |
| --- | --- |
| N[C@H](Cc1cc(I)c(Oc2ccc(O)c(I)c2)c(I)c1)C(=O)O | 0.999 |
| C[C@@H]1CC2C3CCC4=CC(=O)C=C[C@]4(C)[C@@]3(F)[C@@H](O)C[C@]2(C)[C@H]1C(=O)CO (some centres not stated) | 0.993 |
| O=c1cc(-c2ccccc2)oc2cccc(O)c12 | 0.964 |
| CN(C)CCC(c1ccc(Br)cc1)c1ccccn1 (configuration not stated) | 0.982 |
| N[C@H](Cc1ccccc1)C(=O)O | 1 |
| NC(Cc1ccc(F)cc1)C(=O)O (configuration not stated) | 1.02 |
| NC(=O)c1ncn(C2O[C@H](CO)[C@@H](O)[C@H]2O)c1N (some centres not stated) | 1.05 |

====

Assay: chemical genetic growth profiling, strain panel (AID 1159580)
Settings: S. cerevisiae deletion strains, growth OD, locus YGR252W, strain gcn5
Among all 5,500 compounds or so, about 2,000 (36%) were called active. About 18% were inconclusive and are not listed. No stated cut-off is given here; in the data, active means normalized growth mostly below about 0.91 (no sharp cut-off); inconclusive means no clear call, values can overlap the other calls; inactive means mostly above about 0.92. Some of the results follow.
Labels: active, inactive

| molecule | assigned.label |
| --- | --- |
| CN(C)C(=O)Nc1ccc(Cl)c(Cl)c1 | inactive |
| Cc1nc2ccccn2c(=O)c1CCN1CCC(C(=O)c2ccc(F)cc2)CC1 | inactive |
| CC1(C)C(O)CC(O)C2(C)C1CC(O)C1(C)C2CCC2(C)C(c3ccoc3)OC(=O)C3OC321 (stereo not given) | inactive |
| Cc1nc2sccn2c(=O)c1CCN1CCC(=C(c2ccc(F)cc2)c2ccc(F)cc2)CC1 | active |
| COc1cc2c(cc1O)C(Cc1ccc(O)cc1)N(C)CC2 (stereo not given) | inactive |

====

Experiment: chemical genetic growth profiling, strain panel (AID 1159580)
Conditions: S. cerevisiae deletion strains, growth OD, locus YJR016C, strain ILV3
In all, about 5,500 compounds went through this assay and about 2,000 (36%) were called active. About 18% were inconclusive and are not listed. Cut-off read from the data, not from the text of the source: active = normalized growth mostly below about 0.91 (no sharp cut-off); inconclusive = no clear call, values can overlap the other calls; inactive = mostly above about 0.92. The list shows a part of the results.
Outcomes: 1 (active), 0 (inactive)

| compound | assigned.label |
| --- | --- |
| O=C(CCn1c(=O)oc2ccccc21)Sc1ccc(C(F)(F)F)cc1 | 0 |
| O=[N+]([O-])c1ccc(-c2csc(Nc3ccncc3)n2)cc1 | 0 |
| S=C(Nc1cc(Cl)c(Cl)cc1Cl)Nc1ccccc1Br | 0 |
| Cc1c(S(=O)(=O)c2ccc(Cl)cc2)csc1C(=O)NNc1cccc(Cl)c1 | 0 |
| CS(=O)(=O)/C(C#N)=C/c1ccccc1OCc1c(Cl)cccc1Cl | 0 |
| N#Cc1ccc(NC(=O)Nc2cccc3ccccc23)cc1 | 0 |
| Cc1ccc(S(=O)(=O)Nc2ccc(Oc3ccc(F)cc3)cc2)cc1 | 0 |
| O=C(Nc1cccc2ccccc12)c1ccccc1O | 1 |
| O=C1/C(=C/c2ccc(C(F)(F)F)cc2)COc2ccccc21 | 0 |
| CC1C/C(=N/Nc2ccc(Br)cc2)c2cc(Cl)ccc2S1(=O)=O (configuration not stated) | 0 |
| O=C(CCn1c(=O)oc2ccccc21)Sc1ccc(Cl)cc1Cl | 0 |
| COc1ccc(C(=O)NCc2csc3ccc(Cl)cc23)cc1OC | 0 |
| O=C(NNc1ccc(Cl)cc1)c1ccc(F)cc1F | 0 |
| Cc1nn(Cc2nnc(SCc3cccc(C(F)(F)F)c3)o2)c(C)c1Br | 0 |
| S=C(NNc1ccccc1)Nc1cc(Cl)ccc1Cl | 0 |
| Cc1onc(-c2ccccc2)c1C(=O)Sc1ccc(C(F)(F)F)cn1 | 0 |
| O=C1/C(=C/c2cccs2)COc2ccccc21 | 0 |
| O=C(Nc1ccc(Cl)cc1)O/N=C\c1ccn(-c2ccccc2)n1 | 0 |
| COc1ccc(CC2CCC(=NOC(=O)c3c(Cl)cccc3Cl)CC2)cc1 (configuration not stated) | 0 |
| CC1C/C(=N/Nc2ccc(Br)cc2)c2cc(Cl)ccc2S1 (configuration not stated) | 1 |
| O=C1CSC(c2ccc(C(F)(F)F)cc2)N1c1ccc(C(F)(F)F)cc1 (configuration not stated) | 0 |
| Oc1ccc(N=Nc2ccccn2)c(O)c1 | 1 |

====

Test: chemical genetic growth profiling, strain panel (AID 1159580);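 note: tested at 20 µM; growth read once vehicle control cultures reached saturation at 30 °C; 1 = growth at the plate median or of vehicle wells; lower values mean less growth of the strain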
Conditions: S. cerevisiae deletion strains, growth OD, locus YJL164C, strain tpk1
Out of some 5,500 compounds screened, about 2,000 (36%) were called active. About 18% were inconclusive and are not listed. No stated cut-off is given here; in the data, active means normalized growth mostly below about 0.91 (no sharp cut-off); inconclusive means no clear call, values can overlap the other calls; inactive means mostly above about 0.92. This is one part of the list.
Classes used: TRUE (active), FALSE (inactive)

| compound | assigned.label |
| --- | --- |
| OC[C@H]1OC([S-])[C@H](O)[C@@H](O)[C@@H]1O.[Au+] (some centres not stated) | FALSE |
| N[C@H](Cc1ccccc1)C(=O)O | FALSE |
| C=C1[C@H]2CC[C@@]3(C)[C@H](c4ccoc4)OC(=O)C[C@]13O[C@H]1C[C@H](O)C(C)(C)[C@H](CC(=O)OC)[C@]12C | FALSE |
| CN(C)CCOC(=O)COc1ccc(Cl)cc1 | FALSE |
| CCCCC[C@H](CC(=O)NO)C(=O)N[C@H](C(=O)N1CCC[C@H]1CO)C(C)C | FALSE |
| N[C@H](Cc1cc(I)c(Oc2ccc(O)c(I)c2)c(I)c1)C(=O)O | TRUE |
| O=c1cc(-c2ccccc2)oc2cc(O)c(O)c(O)c12 | TRUE |
| O=c1cc(-c2ccccc2)oc2cccc(O)c12 | TRUE |
| C=C1C2CC[C@@]3(C)[C@H](c4ccoc4)OC(=O)C[C@]13O[C@H]1CC(=O)C(C)(C)C(CC(=O)OC)[C@@]21C (some centres not stated) | FALSE |
| COc1c(Cl)ccc(Cl)c1C(=O)O | FALSE |
| CN(C)CCOC(=O)C(c1ccccc1)C1(O)CCCC1 (configuration not stated) | FALSE |
| Cc1cc(C)cc(OCC2CNC(=O)O2)c1 (configuration not stated) | FALSE |
| COC(=O)CCCOc1ccc(Cl)cc1Cl | FALSE |
| NC(=O)c1ncn(C2O[C@H](CO)[C@@H](O)[C@H]2O)c1N (some centres not stated) | FALSE |
| Cc1nc2ccccn2c(=O)c1CCN1CCC(C(=O)c2ccc(F)cc2)CC1 | FALSE |
| CCC(=O)Nc1ccc(Cl)c(Cl)c1 | FALSE |
| C[C@H](N)[C@H](O)c1cccc(O)c1 | FALSE |
| O=C(O)CCCOc1ccc(Cl)cc1Cl | FALSE |
| CCCC(CCC)C(=O)O | FALSE |
| NS(=O)(=O)c1cc2c(cc1Cl)NC(C1CC3C=CC1C3)NS2(=O)=O (configuration not stated) | FALSE |
| CC12CC3CC(C)(C1)CC(N)(C3)C2 | FALSE |
| C=C1C2=CC(=O)O[C@@H](c3ccoc3)[C@]2(C)CCC1[C@@]1(C)C=CC(=O)C(C)(C)[C@@H]1CC(=O)OC (some centres not stated) | FALSE |

====

Test: chemical genetic growth profiling, strain panel (AID 1159580);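 note: tested at 20 µM; growth read once vehicle control cultures reached saturation at 30 °C; 1 = growth at the plate median or of vehicle wells; lower values mean less growth of the strain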
Details: S. cerevisiae deletion strains, growth OD, locus YBR021W, strain FUR4, hits give low values
Screen size: about 5,500 compounds; about 2,000 (36%) were called active. Roughly 18% stayed inconclusive and do not appear here. This is one part of the list.
Below: a set of entries, each annotated with reported normalized growth.
property: normalized growth

| compound | property | assay.result |
| --- | --- | --- |
| COc1cc(OC)c(OC)cc1C=O | normalized growth | 1.03 |
| O=c1cc(-c2ccccc2)oc2cc(O)c(O)c(O)c12 | normalized growth | 0.885 |
| OC1=Cc2c(O)cc(O)cc2OC1(O)c1ccc(O)c(O)c1 (stereo unspecified) | normalized growth | 1.06 |
| O=C(O)c1ccccc1C(=O)Nc1ccc(S(=O)(=O)Nc2nccs2)cc1 | normalized growth | 1.01 |
| COc1cc2c(cc1O)C(Cc1ccc(O)cc1)N(C)CC2 (stereo unspecified) | normalized growth | 1.02 |
| CC1(C)C(=O)C=C[C@@]2(C)C1CC(=O)[C@@]1(C)C3=CC(=O)O[C@@H](c4ccoc4)[C@]3(C)CCC12 (stereo partly specified) | normalized growth | 0.994 |

====

Experiment: chemical genetic growth profiling, strain panel (AID 1159580);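 note: tested at 20 µM; growth read once vehicle control cultures reached saturation at 30 °C; 1 = growth at the plate median or of vehicle wells; lower values mean less growth of the strain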
Details: S. cerevisiae deletion strains, growth OD, locus YOL147C, strain pex11, hits give low values
About 2,000 (36%) of roughly 5,500 compounds were called active. About 18% were inconclusive and are not listed. The list shows a part of the results.
property: normalized growth

| compound | assay.result |
| --- | --- |
| COc1c(Cl)ccc(Cl)c1C(=O)O | 1.01 |
| Nc1ccn(C2O[C@H](CO)[C@@H](O)[C@H]2O)c(=O)n1 (stereo partly drawn) | 1 |
| CCCC(CCC)C(=O)O | 0.961 |
| O=C(Nc1ccccc1)Nc1ccccc1 | 0.978 |
| CCCC(C(=O)OCCN(CC)CC)(c1ccccc1)c1ccccc1 | 0.995 |
| O=C(Nc1ccccc1)c1ccccc1O | 0.987 |
| CN(C)C(=O)Nc1ccc(Cl)c(Cl)c1 | 1 |
| CC(=O)Nc1nnc(S(N)(=O)=O)s1 | 1.01 |
| C[C@H](N)[C@H](O)c1cccc(O)c1 | 0.978 |
| C[C@H](N)[C@H](O)c1ccccc1 | 0.996 |
| CO[C@]12C[C@@H](COC(=O)c3cncc(Br)c3)CN(C)[C@@H]1Cc1cn(C)c3cccc2c13 | 1.01 |
| CCN(CC)CCOC(=O)C(c1ccccc1)c1ccccc1 | 0.994 |
| CC(=O)N=c1sc(S(N)(=O)=O)nn1C | 1.01 |
